# TARGET: mP2X7R (full-length wild-type mouse P2X7 receptor) (Mus musculus)
# Construct: full-length wild-type homotrimer; untagged in Xenopus oocytes for TEVC
# Sequence (Q9Z1M0 whole entry): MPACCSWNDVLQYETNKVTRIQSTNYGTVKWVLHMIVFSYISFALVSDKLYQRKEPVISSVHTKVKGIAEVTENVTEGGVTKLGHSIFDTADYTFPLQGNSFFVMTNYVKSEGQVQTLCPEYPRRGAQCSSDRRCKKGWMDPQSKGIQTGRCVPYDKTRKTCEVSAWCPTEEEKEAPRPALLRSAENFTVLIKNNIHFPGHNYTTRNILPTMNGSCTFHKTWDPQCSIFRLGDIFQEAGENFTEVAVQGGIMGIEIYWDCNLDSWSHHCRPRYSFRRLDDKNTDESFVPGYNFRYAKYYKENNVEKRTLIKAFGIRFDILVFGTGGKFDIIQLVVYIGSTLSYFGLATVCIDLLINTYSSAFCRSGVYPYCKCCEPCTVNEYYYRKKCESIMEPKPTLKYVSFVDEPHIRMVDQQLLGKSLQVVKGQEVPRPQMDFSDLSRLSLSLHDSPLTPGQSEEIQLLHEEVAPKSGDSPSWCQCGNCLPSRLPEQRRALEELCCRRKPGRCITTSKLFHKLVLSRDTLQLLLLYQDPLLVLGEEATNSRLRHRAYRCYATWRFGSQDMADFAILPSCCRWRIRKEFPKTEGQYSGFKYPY
# METHOD_SUMMARY: two-electrode voltage clamp, Xenopus oocytes
QUANTITY: EC50 (µM)
Supply the numeric figure in µM, leaving out any unit text.

The reported value for Nc1ncnc2c1ncn2[C@@H]1O[C@H](COP(=O)(O)OP(=O)(O)OP(=O)(O)O)[C@@H](O)[C@H]1O [ATP] in terms of EC50 is 70

* * *

# TARGET: rP2X7R (full-length wild-type rat P2X7 receptor) (Rattus norvegicus)
# Construct: gene P2rx7; full-length wild-type homotrimer; untagged in Xenopus oocytes for TEVC
# Sequence (Q64663 whole entry): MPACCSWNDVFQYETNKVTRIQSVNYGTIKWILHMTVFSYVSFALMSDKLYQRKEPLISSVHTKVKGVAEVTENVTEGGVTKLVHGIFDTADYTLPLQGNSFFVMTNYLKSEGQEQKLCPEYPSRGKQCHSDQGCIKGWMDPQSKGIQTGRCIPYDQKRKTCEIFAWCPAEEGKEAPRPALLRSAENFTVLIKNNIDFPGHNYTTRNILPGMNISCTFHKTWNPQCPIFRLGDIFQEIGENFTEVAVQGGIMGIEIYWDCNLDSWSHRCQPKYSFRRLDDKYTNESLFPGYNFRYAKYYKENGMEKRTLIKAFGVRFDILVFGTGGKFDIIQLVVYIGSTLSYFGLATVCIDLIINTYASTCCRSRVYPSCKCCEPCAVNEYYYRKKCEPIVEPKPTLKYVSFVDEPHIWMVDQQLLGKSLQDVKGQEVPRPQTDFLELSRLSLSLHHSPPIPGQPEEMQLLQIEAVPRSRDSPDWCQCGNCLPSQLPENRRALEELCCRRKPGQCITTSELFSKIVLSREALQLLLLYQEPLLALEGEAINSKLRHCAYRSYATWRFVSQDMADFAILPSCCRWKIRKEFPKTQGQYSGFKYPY
# METHOD_SUMMARY: calcium influx (Fluo-4), […]1 cells
# Assay type: cell-based
QUANTITY: pIC50
In textbook form, pIC50 equals minus log to base ten of the concentration in mol/L.

Sure, the documented pIC50 for O=C(NNc1ccccc1Cl)C12CC3CC(CC(C3)C1)C2 [UB-ALT-P30] is 6.92
